Data origin, for the record: paper PMC12064818

# target_or_system: FLuc-C-HiBiT (Photinus pyralis, UniProt P08659)
# Construct: firefly luciferase with C-terminal HiBiT tag, E. coli expressed
# Sequence (P08659 whole entry, looked up): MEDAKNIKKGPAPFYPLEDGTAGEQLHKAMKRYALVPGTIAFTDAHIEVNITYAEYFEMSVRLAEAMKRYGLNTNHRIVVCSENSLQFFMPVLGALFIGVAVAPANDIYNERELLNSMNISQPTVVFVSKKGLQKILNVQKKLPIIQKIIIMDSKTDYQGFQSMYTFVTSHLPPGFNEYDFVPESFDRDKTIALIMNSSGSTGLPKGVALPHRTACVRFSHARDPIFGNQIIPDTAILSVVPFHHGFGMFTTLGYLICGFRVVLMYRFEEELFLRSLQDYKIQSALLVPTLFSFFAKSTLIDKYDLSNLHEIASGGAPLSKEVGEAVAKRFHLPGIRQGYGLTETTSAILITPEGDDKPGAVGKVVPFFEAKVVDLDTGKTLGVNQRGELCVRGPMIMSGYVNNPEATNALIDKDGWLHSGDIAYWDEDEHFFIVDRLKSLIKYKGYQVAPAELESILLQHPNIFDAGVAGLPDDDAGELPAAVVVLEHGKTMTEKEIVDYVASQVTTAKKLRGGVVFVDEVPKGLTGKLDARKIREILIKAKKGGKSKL
# test_summary: biochemical
# measurement_conditions: enzyme activity, 10 uM ATP; read-out: IC50 or SDR50 (mM) / FLuc E
quantity: IC50 (µM)

Examples with answers:
>>> result("CC(=O)N1CCNc2cc(-c3cccc(F)c3)ncc2C1")
25.4
>>> result("O=C(Nc1cccc(-c2nc3ccccc3s2)c1)N1CCC(O)C1 (stereo not drawn)")
8.81
>>> result("CCn1c(=O)c(C(=O)Nc2ccc(C(C)=O)cc2)nc2ccccc21")
12.4
>>> result("O=C(NCCc1c[nH]cn1)c1ccc2nc(-c3ccc(F)cc3)cn2c1")
14
>>> result("O=C(O)c1ccc(-c2noc(-c3ccccc3Cl)n2)cc1")
1.11
>>> result("O=C(Nc1ccc([C@H]2OCC(=O)N(C3CCOCC3)[C@@H]2CO)cc1)c1ccc(C(F)(F)F)cc1")
12.4
>>> result("c1ccc(Nc2cc3c(cn2)CN(CC2CCOC2)CCN3)cc1 (stereo not drawn)")
20.2
>>> result("CN(Cc1nccs1)c1ccc(-c2nc(-c3ccccc3F)no2)cn1")
9.89

[A] CCn1c(C2CCCN(C(=O)Nc3ccc4c(c3)OCCO4)C2)nn(C)c1=O (stereo not drawn)
[B] O=C1c2cnc(-c3cc4ccccc4o3)nc2OCCN1Cc1ccccc1
Inquiry: Returns: the label, A or B , whose recorded IC50 is the lower number. Reply briefly: the label of your chosen item.
Reply text: B
(B: 1.61 µM, A: 11.1 µM)

---

# target_or_system: FLuc-C-HiBiT (Photinus pyralis, UniProt P08659)
# Construct: firefly luciferase with C-terminal HiBiT tag, E. coli expressed
# test_summary: biochemical
# measurement_conditions: enzyme activity, 10 uM ATP; read-out: IC50 or SDR50 (mM) / FLuc E
quantity: IC50 (mM)

[a] Cc1ccc(-c2nc(C(=O)N(C)Cc3ccccc3)no2)cc1
[b] CCc1cccc(NC(=O)Nc2cccc(-c3ccc(N4CCOCC4)nn3)c2)c1
Inquiry: Form field 'greater IC50' accepts a or b ; which applies? Reply briefly: the label of your chosen item.
Reply text: a
(a: 0.0124 mM, b: 0.00624 mM)

---

# target_or_system: FLuc-C-HiBiT (Photinus pyralis, UniProt P08659)
# Construct: firefly luciferase with C-terminal HiBiT tag, E. coli expressed
# test_summary: biochemical
# measurement_conditions: enzyme activity, 10 uM ATP; read-out: IC50 or SDR50 (mM) / FLuc E
# Description: The enzyme activity of FLuc-N-HiBiT, FLuc-C-HiBiT, and FLuc-C-NLuc was measured similar to P. pyralis firefly luciferase (FLuc) as previously described. […] Compounds and controls were added to each plate as described in Supplementary Data 8 with a Hornet pintool system (Wako Automation). […] Luciferin was incubated with FLuc enzyme for 5 min before FLuc activity was then measured on a ViewLux CCD imager (PerkinElmer), with exposure times up to ten seconds with medium to high gain settings. […]
quantity: IC50 (mM)

>>> result("Cc1ccc(-c2cc3c(=O)n(CCNC(=O)c4cccc5[nH]ccc45)ccn3n2)cc1C [NCGC00457046-01]")
0.00785

[P] Cc1ccc(NC(=O)Nc2cccn3nc(C)nc23)cc1 [NCGC00470444-01]
[Q] Cc1cc(-c2nc3cc(F)ccc3s2)ccc1N [NCGC00402259-04]
[R] O=C(Nc1nc2c(F)cccc2s1)c1ccc2c(c1)OCCO2 [NCGC00141660-01]
Inquiry: Please produce an ascending ranking of these molecules based on IC50. Hello, could you send the labels back in the order asked? Thank you.
Reply text: R, Q, P
(R: 0.000495 mM, Q: 0.00111 mM, P: 0.0111 mM)
